Listing: AC50 of selected compounds
molecular target: 3',5'-cyclic-AMP phosphodiesterase 4A (Homo sapiens, UniProt P27815); assay type: functional; further: assay procedure not described here
Sequence (P27815 whole entry): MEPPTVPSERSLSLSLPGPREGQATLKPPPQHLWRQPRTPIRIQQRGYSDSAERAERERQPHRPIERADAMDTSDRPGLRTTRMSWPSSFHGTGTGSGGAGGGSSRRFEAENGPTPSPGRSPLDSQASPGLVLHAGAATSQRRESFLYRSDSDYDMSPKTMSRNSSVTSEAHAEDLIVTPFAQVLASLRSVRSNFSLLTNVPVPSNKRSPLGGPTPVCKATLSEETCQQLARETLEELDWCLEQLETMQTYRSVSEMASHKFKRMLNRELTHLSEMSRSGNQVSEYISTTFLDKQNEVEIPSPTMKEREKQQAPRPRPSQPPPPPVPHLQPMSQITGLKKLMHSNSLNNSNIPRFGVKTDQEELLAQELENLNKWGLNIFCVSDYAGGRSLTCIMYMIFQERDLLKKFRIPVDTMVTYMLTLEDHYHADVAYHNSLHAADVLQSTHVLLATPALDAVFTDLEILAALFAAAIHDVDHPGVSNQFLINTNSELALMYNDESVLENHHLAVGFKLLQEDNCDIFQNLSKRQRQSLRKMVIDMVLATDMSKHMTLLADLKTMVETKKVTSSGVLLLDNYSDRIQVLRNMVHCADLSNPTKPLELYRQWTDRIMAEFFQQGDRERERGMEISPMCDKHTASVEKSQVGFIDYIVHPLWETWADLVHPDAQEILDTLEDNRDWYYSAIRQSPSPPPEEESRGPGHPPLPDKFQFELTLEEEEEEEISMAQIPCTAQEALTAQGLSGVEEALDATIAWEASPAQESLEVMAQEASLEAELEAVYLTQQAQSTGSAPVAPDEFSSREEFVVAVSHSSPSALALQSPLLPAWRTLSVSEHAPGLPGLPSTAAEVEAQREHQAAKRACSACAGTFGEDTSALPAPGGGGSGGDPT

Completed entries (count: 5):
Note AC50 for the compound shown: Nc1ccc(S(N)(=O)=O)cc1 [SULFANILAMIDE]
> 30 µM

Note AC50 for the compound shown: CCC(=O)c1c(O)cc(O)cc1O [FLOPROPIONE]
> 30 µM

Note AC50 for the compound shown: Nc1ccc(/N=N/c2ccccc2)c(N)n1 [PHENAZOPYRIDINE]
22.5 µM

Note AC50 for the compound shown: O=C(O)CCCN1CCC(O[C@@H](c2ccc(Cl)cc2)c2ccccn2)CC1 [BEPOTASTINE]
> 30 µM

Note AC50 for the compound shown: C[C@@H]1O[C@@H](OC[C@H]2O[C@@H](Oc3c(-c4ccc(OCCO)c(OCCO)c4)oc4cc(OCCO)cc(O)c4c3=O)[C@H](O)[C@@H](O)[C@@H]2O)[C@H](O)[C@H](O)[C@H]1O [TROXERUTIN]
> 30 µM

Continuing:
Note AC50 for the compound shown: Nc1nc(-n2cc(C(=O)O)c(=O)c3cc(F)c(N4CC(O)C4)c(Cl)c32)c(F)cc1F [DELAFLOXACIN]
> 30 µM

Note AC50 for the compound shown: C[C@H]1O[C@H](O[C@H]2[C@H](O)[C@@H](O)[C@@H](O[C@H]3[C@H](O)[C@@H](O)C(O)O[C@@H]3CO)O[C@@H]2CO)[C@H](O)[C@@H](O)[C@@H]1N[C@H]1C=C(CO)[C@@H](O)[C@H](O)[C@H]1O (stereo partly specified) [ACARBOSE]
5.08 µM

Note AC50 for the compound shown: CN(CCOc1ccc(NS(C)(=O)=O)cc1)CCc1ccc(NS(C)(=O)=O)cc1 [DOFETILIDE]
> 30 µM

Note AC50 for the compound shown: O=C(NC[C@H]1CN(c2ccc(N3CCOCC3=O)cc2)C(=O)O1)c1ccc(Cl)s1 [RIVAROXABAN]
> 30 µM

Note AC50 for the compound shown: CN(C)C(=O)Oc1ccc[n+](C)c1 [PYRIDOSTIGMINE]
> 30 µM

* * *

D(3) dopamine receptor (Homo sapiens, UniProt P35462): reported AC50 for various compounds. Further: assay procedure not described here.
Sequence (P35462 whole entry): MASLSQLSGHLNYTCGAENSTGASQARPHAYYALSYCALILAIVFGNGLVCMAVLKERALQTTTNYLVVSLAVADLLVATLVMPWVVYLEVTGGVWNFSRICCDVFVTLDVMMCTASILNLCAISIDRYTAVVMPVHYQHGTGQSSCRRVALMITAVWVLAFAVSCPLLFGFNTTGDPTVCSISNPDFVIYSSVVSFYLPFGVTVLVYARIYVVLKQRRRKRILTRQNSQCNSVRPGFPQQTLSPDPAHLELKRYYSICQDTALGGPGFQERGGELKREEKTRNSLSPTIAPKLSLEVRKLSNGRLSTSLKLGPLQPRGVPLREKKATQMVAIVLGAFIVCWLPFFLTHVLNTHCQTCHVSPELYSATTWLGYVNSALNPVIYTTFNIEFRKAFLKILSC

Completed entries (count: 4):
Output reported AC50 of the compound COC(=O)C1=C(C)NC(C)=C(C(=O)OCC(C)C)C1c1ccccc1[N+](=O)[O-] (stereo not given) on D(3) dopamine receptor (Homo sapiens, UniProt P35462).
10 µM

Output reported AC50 of the compound NC(=O)c1ncn([C@@H]2O[C@H](CO)[C@@H](O)[C@H]2O)c1O on D(3) dopamine receptor (Homo sapiens, UniProt P35462).
> 30 µM

Output reported AC50 of the compound OCc1cc([C@@H](O)CNCCCCCCOCCOCc2c(Cl)cccc2Cl)ccc1O on D(3) dopamine receptor (Homo sapiens, UniProt P35462).
> 30 µM

Output reported AC50 of the compound COc1c(C)c2c(c(O)c1C/C=C(\C)CCC(=O)OCCN1CCOCC1)C(=O)OC2 [MYCOPHENOLATE MOFETIL] on D(3) dopamine receptor (Homo sapiens, UniProt P35462).
> 30 µM

Continuing:
Output reported AC50 of the compound NC[C@H]1CC[C@H](C(=O)O)CC1 on D(3) dopamine receptor (Homo sapiens, UniProt P35462).
> 30 µM
